System: SERT
Test: Baboon PET imaging: brain uptake, kinetic analysis and SERT parameters
Format: in vivo
Details: BP = VT ROI − VT CER; baboons, mean ± SD of four experiments
Assay Metric: Binding potential Striatum
Value and unit, in that order.

| Compound | Assay Metric | Result |
| --- | --- | --- |
| [11CH3]Sc1ccc([C@H]2CN3CCC[C@H]3c3ccccc32)cc1 [[^11C]McN 5652] | Binding potential Striatum | 17.6 ± 4.0 mL/g |
| CN(C)Cc1ccccc1Sc1ccc(I)cc1N [[^11C]ADAM] | Binding potential Striatum | 17.8 ± 3.7 mL/g |
| CN(C)Cc1ccccc1Sc1ccc(Br)cc1N [[^11C]DAPA] | Binding potential Striatum | 22.9 ± 0.9 mL/g |
| CN([11CH3])Cc1ccccc1Sc1ccc(CF)cc1N [[^11C]AFM] | Binding potential Striatum | 31.3 ± 6.5 mL/g |

(Q) Data request, read-out Binding potential Striatum, for CN(C)Cc1ccccc1Sc1ccc(C#N)cc1N [[^11C]DASB]
(A) 14.4 ± 1.5 mL/g

====

Reported K1 Hippocampus values are given for each entry in this list.
Test system: SERT
Experiment: Baboon PET imaging: brain uptake, kinetic analysis and SERT parameters
Assay type: in vivo
Conditions: one-tissue compartment model; baboons, mean ± SD of four experiments

Below are worked cases with known answers.
| Compound | Result |
| --- | --- |
| CN(C)Cc1ccccc1Sc1ccc(Br)cc1N [[^11C]DAPA] | 0.67 ± 0.16 mL/g/min |
| CN(C)Cc1ccccc1Sc1ccc(C#N)cc1N [[^11C]DASB] | 0.98 ± 0.20 mL/g/min |

(Q) Data request, read-out K1 Hippocampus, for CN([11CH3])Cc1ccccc1Sc1ccc(CF)cc1N [[^11C]AFM]
(A) 1.15 ± 0.35 mL/g/min

(Q) Data request, read-out K1 Hippocampus, for [11CH3]Sc1ccc([C@H]2CN3CCC[C@H]3c3ccccc32)cc1 [[^11C]McN 5652]
(A) 0.74 ± 0.12 mL/g/min

(Q) Data request, read-out K1 Hippocampus, for CN(C)Cc1ccccc1Sc1ccc(I)cc1N [[^11C]ADAM]
(A) 0.85 ± 0.32 mL/g/min

====

Test: Baboon PET imaging: brain uptake, kinetic analysis and SERT parameters
Type: in vivo
Conditions: male, baboon, cerebellum, intravenous; one-tissue compartment model; baboons, mean ± SD of four experiments; read-out: VT Cerebellum (VT CER, nonspecific distribution volume)
Method: PET imaging protocol: PET experiments (n=20) were performed at Columbia University. Two adult male baboons (baboon A and B) were studied twice with each of the 5 radioligands (4 experiments per radioligand). […] Experiments were performed according to protocols approved by the Columbia-Presbyterian Medical Center Institutional Animal Care and Use Committee. […] Vital signs were monitored every 10 minutes and the temperature was kept constant at 37° C. with heated water blankets. […]
Reported Kp values are given for each entry in this list.

Below are worked cases with known answers.
| Compound | Kp |
| --- | --- |
| CN(C)Cc1ccccc1Sc1ccc(Br)cc1N [[^11C]DAPA] | 29.3 |
| CN(C)Cc1ccccc1Sc1ccc(C#N)cc1N [[^11C]DASB] | 17.3 |

Please turn your attention to the following entry.
(Q) Data request, read-out Kp, for CN(C)Cc1ccccc1Sc1ccc(I)cc1N [[^11C]ADAM]
(A) 28.5

====

Reported Cerebellum V (nonspecific distribution volume) values are given for each entry in this list.
Test system: SERT
Experiment: Experiment 5: PET brain imaging of ^11C and ^18F labeled AFM, AFA, AFE in one baboon
Type: in vivo
Settings: one adult male baboon, n = 1 to 4 scans, two-compartment model
The figure you give is taken to be in mL/g; do not add the unit.

Below are worked cases with known answers.
| Compound | Numeric Readout |
| --- | --- |
| CN(C)Cc1ccccc1Sc1ccc(CC[18F])cc1N [[^18F]AFE] | 19 |
| CN([11CH3])Cc1ccccc1Sc1ccc(F)cc1N [[^11C]AFA] | 13 |

(Q) Data request, read-out Cerebellum V (nonspecific distribution volume), for CN([11CH3])Cc1ccccc1Sc1ccc(CF)cc1N [[^11C]AFM]
(A) 32

(Q) Data request, read-out Cerebellum V (nonspecific distribution volume), for CN(C)Cc1ccccc1Sc1ccc([18F])cc1N [[^18F]AFA]
(A) 24

(Q) Data request, read-out Cerebellum V (nonspecific distribution volume), for CN(C)Cc1ccccc1Sc1ccc(CCF)cc1N [[^11C]AFE]
(A) 16

(Q) Data request, read-out Cerebellum V (nonspecific distribution volume), for CN(C)Cc1ccccc1Sc1ccc(C[18F])cc1N [[^18F]AFM]
(A) 23
